# TEST SYSTEM: human Glucose-dependent Insulinotropic Polypeptide Receptor (hGIPR) (Homo sapiens, UniProt P48546)
# ASSAY PROTOCOL: Functional in vitro GIPR antagonist potency assay (cAMP HTRF, CHO-K1 cells stably expressing hGIPR, hGIP stimulation at about EC80)
# CONDITION: geometric mean, hGIP at estimated EC80, examples marked ^2: overall geometric mean of multiple forms (including salts) tested
Below, each entry is listed with its recorded pIC50.
Remember, pIC50 is on a log scale: it is -log10 of the molar concentration.

Consider the worked cases shown below.
Kindly note the recorded pIC50 for O=C(O)c1ccc(-c2ccc(NC(=O)[C@H]3CCCN3C(=O)Nc3ccc(C4CC4)c(F)c3)cc2)cc1 , which is 7.68

Kindly note the recorded pIC50 for O=C(O)c1ccc(-c2ccc(NC(=O)[C@H]3CCCN3C(=O)Nc3ccc(C(F)(F)F)c(F)c3)cn2)cc1 , which is 7.82

Kindly note the recorded pIC50 for COc1cc(C(=O)O)ccc1-c1ccc(NC(=O)[C@H]2CCCN2C(=O)Nc2ccc(C(C)C)c(C)c2)nc1 , which is 7.35

Kindly note the recorded pIC50 for Cc1cc(NC(=O)[C@H]2CCCN2C(=O)Nc2ccc(C(C)C)cc2)cnc1-c1ccc(C(=O)O)cc1 , which is 7.07

Continuing:
Kindly note the recorded pIC50 for O=C(O)c1ccc(-c2ccc(NC(=O)[C@H]3CCCN3C(=O)Nc3ccc(Br)cc3)cc2)cc1 , which is 8.21

Kindly note the recorded pIC50 for CC(C)c1ccc(NC(=O)N2CCC[C@@H]2C(=O)Nc2ccc(-c3ccc(C(=O)O)c(F)c3)cc2)cc1F , which is 8.17

Kindly note the recorded pIC50 for O=C(O)c1cccc(-c2ccc(NC(=O)[C@H]3CCCN3C(=O)Nc3ccc(C(F)(F)F)cc3)nc2)c1 , which is 7.62

----------
Below, each entry is listed with its recorded pIC50.
# TEST SYSTEM: human Glucose-dependent Insulinotropic Polypeptide Receptor (hGIPR) (Homo sapiens, UniProt P48546)
# Sequence (P48546 22-466): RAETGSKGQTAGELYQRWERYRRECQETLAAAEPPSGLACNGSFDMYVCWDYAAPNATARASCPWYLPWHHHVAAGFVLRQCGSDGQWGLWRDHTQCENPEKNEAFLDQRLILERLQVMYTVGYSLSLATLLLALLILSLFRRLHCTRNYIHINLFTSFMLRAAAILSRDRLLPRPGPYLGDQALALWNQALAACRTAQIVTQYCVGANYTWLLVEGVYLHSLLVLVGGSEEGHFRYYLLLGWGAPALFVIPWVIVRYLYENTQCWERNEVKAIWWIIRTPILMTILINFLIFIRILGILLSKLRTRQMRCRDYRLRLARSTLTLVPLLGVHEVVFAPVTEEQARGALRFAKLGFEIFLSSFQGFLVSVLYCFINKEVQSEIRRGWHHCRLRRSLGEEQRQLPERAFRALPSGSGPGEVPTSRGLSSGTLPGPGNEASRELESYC
# ASSAY PROTOCOL: Functional in vitro GIPR antagonist potency assay (cAMP HTRF, CHO-K1 cells stably expressing hGIPR, hGIP stimulation at about EC80)
# CONDITION: geometric mean, hGIP at estimated EC80, examples marked ^2: overall geometric mean of multiple forms (including salts) tested
Remember, pIC50 is on a log scale: it is -log10 of the molar concentration.

Consider the worked cases shown below.
Kindly note the recorded pIC50 for Cc1cc(O)ccc1-c1ccc(NC(=O)[C@H]2CCCN2C(=O)Nc2ccc(C(C)C)cc2)cc1 [Example 97] , which is 6.64

Kindly note the recorded pIC50 for CC(C)c1ccc(NC(=O)N2CCC[C@@H]2C(=O)Nc2ccc(-c3ccc(C(=O)O)cc3F)cc2)cc1 [Example 56] , which is 8.20

Kindly note the recorded pIC50 for O=C(O)c1ccc(-c2ccc(NC(=O)[C@H]3CCCN3C(=O)Nc3ccc(C4CCC4)cc3)cc2)cn1 [Example 211] , which is 8.15

Kindly note the recorded pIC50 for Cc1cc(NC(=O)N2CCC[C@@H]2C(=O)Nc2ccc(-c3ccc(C(=O)O)cc3)cc2)ccc1C(F)(F)F [Example 106] , which is 8.52

Kindly note the recorded pIC50 for O=C(O)c1ccc(-c2ccc(NC(=O)[C@H]3CCCN3C(=O)Nc3ccc(C4CC4)cc3)cc2)cc1 [Example 7] , which is 8.09

Kindly note the recorded pIC50 for CC(C)c1ccc(NC(=O)N2CCC[C@@H]2C(=O)Nc2ccc(-c3cccc(O)c3F)cc2)cc1 [Example 66] , which is 6.41

Continuing:
Kindly note the recorded pIC50 for Cc1cc(NC(=O)N2CCC[C@@H]2C(=O)Nc2ccc(-c3ccc(C(=O)O)cc3)cn2)ccc1C1CC1 [Example 179] , which is 8.43

These measurements were taken from patent US20240366598A1.
